subject-of-test: D(4) dopamine receptor (Homo sapiens, UniProt P21917)
Sequence (P21917 whole entry): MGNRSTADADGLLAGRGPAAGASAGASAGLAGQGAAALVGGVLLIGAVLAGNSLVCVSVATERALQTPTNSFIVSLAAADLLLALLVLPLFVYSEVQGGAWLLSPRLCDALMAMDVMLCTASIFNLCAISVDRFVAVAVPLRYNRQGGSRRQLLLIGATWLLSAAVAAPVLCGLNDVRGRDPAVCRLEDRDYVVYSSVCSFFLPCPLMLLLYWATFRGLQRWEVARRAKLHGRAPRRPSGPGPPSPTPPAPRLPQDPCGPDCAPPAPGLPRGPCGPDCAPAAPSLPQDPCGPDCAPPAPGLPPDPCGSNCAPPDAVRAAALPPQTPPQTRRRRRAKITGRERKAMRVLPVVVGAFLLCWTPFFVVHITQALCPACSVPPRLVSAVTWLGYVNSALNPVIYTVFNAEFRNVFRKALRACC
test-name: Displacement of [3H]N-methylspiperone from human recombinant dopamine D4 receptor incubated for […] by microbeta scintillation counting method
reported-metric: Ki (nM)
Provide only the numeric value, understood in nM.

Endpoint output: Ki of O=C(CCCCN1CCC(n2c(=O)[nH]c3cc(Cl)ccc32)CC1)c1nc2ccccc2s1 . Value?
1700

Moving on to another molecule below.
Endpoint output: Ki of OC1(c2ccc(Cl)cc2)CCN(CCCCc2nc3ccccc3s2)CC1 . Value?
141

Origin of values: BindingDB's records for doi:10.1016/j.bmc.2016.06.011
